Biological target: Acetylcholinesterase (Electrophorus electricus)
Sequence (O42275 whole entry): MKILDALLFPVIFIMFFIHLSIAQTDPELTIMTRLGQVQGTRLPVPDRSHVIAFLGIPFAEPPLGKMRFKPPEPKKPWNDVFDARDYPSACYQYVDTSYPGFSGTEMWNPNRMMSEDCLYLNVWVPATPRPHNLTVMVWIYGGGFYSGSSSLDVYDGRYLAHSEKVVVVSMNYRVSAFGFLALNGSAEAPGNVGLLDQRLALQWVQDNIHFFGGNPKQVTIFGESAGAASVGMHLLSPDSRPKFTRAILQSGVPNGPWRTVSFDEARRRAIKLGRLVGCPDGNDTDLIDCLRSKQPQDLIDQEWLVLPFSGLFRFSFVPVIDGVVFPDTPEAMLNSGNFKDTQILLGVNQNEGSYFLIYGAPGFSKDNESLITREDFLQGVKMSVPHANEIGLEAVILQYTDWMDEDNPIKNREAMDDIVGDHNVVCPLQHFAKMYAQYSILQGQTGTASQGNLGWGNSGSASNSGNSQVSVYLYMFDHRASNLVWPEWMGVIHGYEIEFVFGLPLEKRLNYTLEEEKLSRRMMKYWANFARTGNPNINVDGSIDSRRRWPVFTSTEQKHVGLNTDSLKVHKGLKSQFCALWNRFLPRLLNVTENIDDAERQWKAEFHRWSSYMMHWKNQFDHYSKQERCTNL
Recorded measurements of IC50, one per entry
Reply numerically in nM, unit not repeated.

Sample answers from the record:
1. O=c1cc(-c2ccccc2)oc2cc(OCCCCN3CCN(CCNc4c5c(nc6ccccc46)CCCC5)CC3)ccc12 ... 268
2. O=c1cc(-c2ccccc2)oc2cc(O)ccc12 [7-HYDROXYFLAVONE] ... 85000
3. O=c1ccoc2cc(OCCCN3CCN(CCCNc4c5c(nc6ccccc46)CCCC5)CC3)ccc12 ... 10.3
4. COc1ccc(-c2cc(=O)c3ccc(OCCCN4CCN(CCCNc5c6c(nc7ccccc57)CCCC6)CC4)cc3o2)cc1 ... 417
5. O=c1cc(-c2ccccc2)oc2cc(OCCN3CCN(CCCNc4c5c(nc6ccccc46)CCCC5)CC3)ccc12 ... 416

Requested read-out: IC50. Entry: O=c1cc(-c2ccccc2)oc2cc(OCCCN3CCN(CCNc4c5c(nc6ccccc46)CCCC5)CC3)ccc12
624

IC50 lookup needed for O=c1cc(-c2ccccc2)oc2cc(OCCN3CCN(CCNc4c5c(nc6ccccc46)CCCC5)CC3)ccc12 , thanks.
481

So what's the measured IC50 for this one? O=c1cc(-c2ccccc2)oc2cc(OCCCCCCN3CCN(CCCNc4c5c(nc6ccccc46)CCCC5)CC3)ccc12
848

Form field: reported IC50 of O=c1cc(-c2ccccc2)oc2cc(OCCCCCCN3CCN(CCNc4c5c(nc6ccccc46)CCCC5)CC3)ccc12
717

Quick one: IC50 for O=c1cc(-c2ccccc2)oc2cc(OCCCN3CCN(CCCNc4c5c(nc6ccccc46)CCCC5)CC3)ccc12 ?
153

Fill in: IC50 of O=c1cc(-c2ccc([N+](=O)[O-])cc2)oc2cc(OCCCN3CCN(CCCNc4c5c(nc6ccccc46)CCCC5)CC3)ccc12 is ___
75

Recorded IC50 of Cc1ccc(-c2cc(=O)c3ccc(OCCCN4CCN(CCCNc5c6c(nc7ccccc57)CCCC6)CC4)cc3o2)cc1 , please.
316

Query: IC50; subject: COc1cc(OCCCN2CCN(CCCNc3c4c(nc5ccccc35)CCCC4)CC2)cc2oc(-c3ccccc3)cc(=O)c12
57.7

// returns reported IC50 for input COc1cc(OCCCN2CCN(CCCNc3c4c(nc5ccccc35)CCCC4)CC2)cc2occc(=O)c12
8.4

Given the entry O=c1cc(-c2ccccc2)oc2cc(OCCCCCN3CCN(CCNc4c5c(nc6ccccc46)CCCC5)CC3)ccc12 , report its measured IC50.
568

Can you share its IC50? I mean this molecule: O=c1cc(-c2ccccc2)oc2cc(OCCCCN3CCN(CCCNc4c5c(nc6ccccc46)CCCC5)CC3)ccc12
547

---

Assay: Cytotoxicity against human SH-SY5Y cells assessed as survival at 5 uM after 24 hrs by MTT assay relative to control
Format: cell-based
Conditions: read-out: Survival
MEASURED ENDPOINT: viability at 24 h, 5 µM (%)
Numbers only; they are read as %.

Give the measured viability at 24 h, 5 µM of O=c1cc(-c2ccccc2)oc2cc(OCCCN3CCN(CCCNc4c5c(nc6ccccc46)CCCC5)CC3)cc(O)c12 .
96.5

---

Experiment: Cytotoxicity against human SH-SY5Y cells assessed as survival at 25 uM after 24 hrs by MTT assay relative to control
Assay type: cell-based
Settings: read-out: Survival
MEASURED ENDPOINT: viability at 24 h, 25 µM

Tell me the measured viability at 24 h, 25 µM of O=c1cc(-c2ccccc2)oc2cc(OCCCN3CCN(CCCNc4c5c(nc6ccccc46)CCCC5)CC3)cc(O)c12 , please.
92.7%

---

Biological target: Amyloid-beta precursor protein (Homo sapiens, UniProt P05067)
Sequence (P05067 whole entry): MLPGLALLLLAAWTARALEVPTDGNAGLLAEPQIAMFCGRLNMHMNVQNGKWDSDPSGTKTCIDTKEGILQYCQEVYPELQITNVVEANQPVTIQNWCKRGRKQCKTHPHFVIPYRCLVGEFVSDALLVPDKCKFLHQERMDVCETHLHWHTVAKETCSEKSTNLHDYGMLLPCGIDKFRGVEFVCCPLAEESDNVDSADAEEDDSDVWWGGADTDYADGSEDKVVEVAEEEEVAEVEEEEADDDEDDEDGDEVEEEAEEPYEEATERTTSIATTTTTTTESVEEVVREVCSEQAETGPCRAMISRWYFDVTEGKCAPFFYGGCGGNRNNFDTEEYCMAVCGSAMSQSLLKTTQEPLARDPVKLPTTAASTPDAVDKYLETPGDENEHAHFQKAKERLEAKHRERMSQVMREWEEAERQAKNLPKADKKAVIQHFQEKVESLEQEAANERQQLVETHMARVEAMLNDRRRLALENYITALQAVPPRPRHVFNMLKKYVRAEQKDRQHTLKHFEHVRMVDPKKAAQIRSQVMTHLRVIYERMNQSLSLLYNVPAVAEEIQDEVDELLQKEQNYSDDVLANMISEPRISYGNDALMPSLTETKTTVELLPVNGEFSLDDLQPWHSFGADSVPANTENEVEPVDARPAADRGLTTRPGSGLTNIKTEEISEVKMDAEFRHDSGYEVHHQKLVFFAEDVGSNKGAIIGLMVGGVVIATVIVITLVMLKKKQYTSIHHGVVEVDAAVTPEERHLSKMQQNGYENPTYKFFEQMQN
MEASURED ENDPOINT: pIC50
A value of pIC50 is the negative decimal logarithm of a concentration given in moles per litre.

1. O=c1ccoc2cc(OCCCN3CCN(CCCNc4c5c(nc6ccccc46)CCCC5)CC3)ccc12 ... 4.94
2. O=c1cc(-c2ccccc2)oc2cc(OCCCCN3CCN(CCNc4c5c(nc6ccccc46)CCCC5)CC3)ccc12 ... 4.79
3. O=c1cc(-c2ccccc2)oc2cc(OCCCCCCN3CCN(CCNc4c5c(nc6ccccc46)CCCC5)CC3)ccc12 ... 4.85
4. O=c1cc(-c2ccccc2)oc2cc(OCCCCCN3CCN(CCCNc4c5c(nc6ccccc46)CCCC5)CC3)ccc12 ... 4.88
5. COc1cc(OCCCN2CCN(CCCNc3c4c(nc5ccccc35)CCCC4)CC2)cc2occc(=O)c12 ... 4.90

Param readout = pIC50; param system = Amyloid-beta precursor protein (Homo sapiens, UniProt P05067); param query = O=c1cc(-c2ccccc2)oc2cc(OCCCCCCN3CCN(CCCNc4c5c(nc6ccccc46)CCCC5)CC3)ccc12 ; response: value
4.87

// fetch Amyloid-beta precursor protein (Homo sapiens, UniProt P05067) pIC50 for O=c1cc(-c2ccccc2)oc2cc(OCCCCN3CCN(CCCNc4c5c(nc6ccccc46)CCCC5)CC3)ccc12
4.76

Hi! What's the reported pIC50 for O=c1cc(-c2ccccc2)oc2cc(OCCN3CCN(CCNc4c5c(nc6ccccc46)CCCC5)CC3)ccc12 on Amyloid-beta precursor protein (Homo sapiens, UniProt P05067)?
4.77

---

Target: Amyloid-beta precursor protein (Homo sapiens, UniProt P05067)
pIC50: −log10 of the molar value.
I would appreciate it if you labelled entries 1 when pIC50 is 5 or higher, otherwise 0.

Quick check: does O=c1ccoc2cc(OCCCN3CCN(CCCNc4c5c(nc6ccccc46)CCCC5)CC3)cc(O)c12 have pIC50 greater than or equal to 5?
1

# check: pIC50 of O=c1cc(-c2ccc([N+](=O)[O-])cc2)oc2cc(OCCCN3CCN(CCCNc4c5c(nc6ccccc46)CCCC5)CC3)ccc12 is greater than or equal to 5
0

Determine whether measured pIC50 meets or exceeds 5 for O=c1cc(-c2ccccc2)oc2cc(OCCCN3CCN(CCCNc4c5c(nc6ccccc46)CCCC5)CC3)cc(O)c12
1

Could you please find out whether O=c1cc(-c2ccccc2)oc2cc(OCCCN3CCN(CCCNc4c5c(nc6ccccc46)CCCC5)CC3)ccc12 has pIC50 that meets 5 or exceeds it?
0

---

Experiment: Cytotoxicity against human SH-SY5Y cells assessed as survival at 50 uM after 24 hrs by MTT assay relative to control
Assay type: cell-based
Settings: read-out: Survival
MEASURED ENDPOINT: viability at 24 h, 50 µM (%)
The reply should contain only the number, in %.

Record request: viability at 24 h, 50 µM value, item O=c1cc(-c2ccccc2)oc2cc(OCCCN3CCN(CCCNc4c5c(nc6ccccc46)CCCC5)CC3)cc(O)c12
90.1

---

Cholinesterase (Equus caballus, UniProt P81908) measurements of pIC50, listed per entry.
Sequence (P81908 whole entry): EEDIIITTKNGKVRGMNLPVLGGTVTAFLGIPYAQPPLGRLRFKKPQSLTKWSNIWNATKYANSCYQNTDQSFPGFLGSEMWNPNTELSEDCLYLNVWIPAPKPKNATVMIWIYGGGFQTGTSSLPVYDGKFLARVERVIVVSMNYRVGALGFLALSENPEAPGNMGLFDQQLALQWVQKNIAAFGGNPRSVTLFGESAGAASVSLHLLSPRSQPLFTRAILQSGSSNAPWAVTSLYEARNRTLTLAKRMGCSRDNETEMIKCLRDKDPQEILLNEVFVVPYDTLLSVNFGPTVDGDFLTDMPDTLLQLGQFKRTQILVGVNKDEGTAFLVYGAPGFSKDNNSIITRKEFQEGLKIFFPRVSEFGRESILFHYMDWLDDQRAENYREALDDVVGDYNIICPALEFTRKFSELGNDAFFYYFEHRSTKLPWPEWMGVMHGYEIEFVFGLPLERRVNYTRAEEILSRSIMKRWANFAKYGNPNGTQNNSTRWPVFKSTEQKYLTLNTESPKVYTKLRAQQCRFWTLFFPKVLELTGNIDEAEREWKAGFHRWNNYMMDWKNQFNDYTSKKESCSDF
Note on units: pIC50 is unitless, being -log10 of a concentration expressed in mol/L.

1. O=c1cc(-c2ccccc2)oc2cc(OCCCN3CCN(CCCNc4c5c(nc6ccccc46)CCCC5)CC3)cc(O)c12 ... 6.25
2. O=c1cc(-c2ccccc2)oc2cc(OCCN3CCN(CCCNc4c5c(nc6ccccc46)CCCC5)CC3)ccc12 ... 6.58

Need pIC50, item CN(C)c1ccc(-c2cc(=O)c3ccc(OCCCN4CCN(CCCNc5c6c(nc7ccccc57)CCCC6)CC4)cc3o2)cc1
6.07

Item under review: O=c1cc(-c2ccccc2)oc2cc(OCCCCN3CCN(CCCNc4c5c(nc6ccccc46)CCCC5)CC3)ccc12 . Reported pIC50?
6.50

pIC50 for COc1cc(OCCCN2CCN(CCCNc3c4c(nc5ccccc35)CCCC4)CC2)cc2occc(=O)c12 ?
7.46

---

Assay: Cytotoxicity against human SH-SY5Y cells assessed as survival at 1 uM after 24 hrs by MTT assay relative to control
Assay type: cell-based
Conditions: read-out: Survival
MEASURED ENDPOINT: viability at 24 h, 1 µM (%)
Expressed in %, but write only the number.

Which viability at 24 h, 1 µM reading was recorded for the compound O=c1cc(-c2ccccc2)oc2cc(OCCCN3CCN(CCCNc4c5c(nc6ccccc46)CCCC5)CC3)cc(O)c12 ?
97.3

---

Attribute: inhibition
Target: Amyloid-beta precursor protein (Homo sapiens)
Assay: Inhibition of amyloid beta (1 to 42) (unknown origin) self-induced aggregation at 20 uM after 48 hrs by thioflavin T fluorescence assay relative to control
Please state the number and follow it with the unit.

1) COc1cc(OCCCN2CCN(CCCNc3c4c(nc5ccccc35)CCCC4)CC2)cc2occc(=O)c12 ... 62%
2) O=c1cc(-c2ccccc2)oc2cc(OCCCCCCN3CCN(CCCNc4c5c(nc6ccccc46)CCCC5)CC3)ccc12 ... 63%

Observed inhibition on Amyloid-beta precursor protein (Homo sapiens) for CN(C)c1ccc(-c2cc(=O)c3ccc(OCCCN4CCN(CCCNc5c6c(nc7ccccc57)CCCC6)CC4)cc3o2)cc1 , please.
12.2%

Notebook: pull reported inhibition for Amyloid-beta precursor protein (Homo sapiens), entry O=c1cc(-c2ccccc2)oc2cc(OCCCCN3CCN(CCNc4c5c(nc6ccccc46)CCCC5)CC3)ccc12
53.7%
